Ref: the RNAGym collection of RNA variant scans (doi:10.1038/nmeth.2970)

B1: NELF-E aptamer (parent)
chain: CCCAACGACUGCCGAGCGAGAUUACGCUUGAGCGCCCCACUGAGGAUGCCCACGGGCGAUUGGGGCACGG

# Variants of: B1
# Assay Info: HiTS-RAP
# Condition Context: with NELF-E (Drosophila)
variants and their reported log10(Kd)
Could you please treat all values as log10 of Kd in nM?

Worked cases, answers included:
# Change, Experimental Value
data = [
    ("A24G G34A", 0.93),
    ("C13U G20U", 0.85),
    ("U41G G64U", 0.72),
]

For this variant ( A24G C27U ), measured log10(Kd) is 0.79

The recorded log10(Kd) for entry G34C C35G equals 0.58

Kindly note the recorded log10(Kd) for A5U G20U , which is 0.89

For this variant ( G11U C25G ), measured log10(Kd) is 0.69

Record A4U A31G . Reported log10(Kd): 0.84
